Reported Kd values for a set of binders
- measurement target: T1, human glycophorin A on human red blood cells or red blood cell membranes (human, UniProt P02724 20-150)
- T1 construct: whole, on cells; also called hRBC; human RBC membranes
- T1 sequence (looked up): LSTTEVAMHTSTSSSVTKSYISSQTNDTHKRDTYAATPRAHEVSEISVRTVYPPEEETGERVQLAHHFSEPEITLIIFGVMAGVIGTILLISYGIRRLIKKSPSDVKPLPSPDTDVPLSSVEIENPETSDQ
- assay info: SPR (Biacore), Fab on human RBC membranes;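 note: human RBC membranes captured on an L1 sensor chip, Fab fragments passed over as analyte, binding kinetics read by surface plasmon resonance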
Your answer should be a plain number; it is taken to be in nM.

TPP-7776, affinity matured 6C12 Fab (Fab, V domains shown, Tested as Fab) VH: EVQLVQSGAEVKKPGASVKVSCKASGYTFTTYAIHWVRQAPGQGLEWMGYINPSSGYTRYNPKFKGRVTMTRDKSTSTAYMELRSLRSDDTAVYYCQTGTRDYWGQGTTVTVSS VL: DIQLTQSPSFLSASVGDRVTITCRASSSVRYIYWFQQKPGKAPKLLIYATSTLRSGVPSRFSGSGSGTEYTLTISSLQPEDFATYYCHQRNSFPYTFGQGTKLEIK    0.0829
TPP-7777, affinity matured 6C12 Fab (Fab, V domains shown, Tested as Fab) VH: EVQLVQSGAEVKKPGASVKVSCKASGYTFTTYTIHWVRQAPGQGLEWMGYINPSSGWTRYNPKFKGRVTMTRDKSTSTAYMELRSLRSDDTAVYYCWTGRRDYWGQGTTVTVSS VL: DIQLTQSPSFLSASVGDRVTITCRASSSVSYIYWFQQKPGKAPKLLIYATSTRQSGVPSRFSGSGSGTEYTLTISSLQPEDFATYYCHQRNSFPYTFGQGTKLEIK    0.0499

From here, focus on the item given below.
-- ask Item TPP-7781, affinity matured 6C12 Fab (Fab, V domains shown, Tested as Fab) VH: EVQLVQSGAEVKKPGASVKVSCKASGYTFTTYTIHWVRQAPGQGLEWMGYINPKSGWTRYNPKFKGRVTMTRDKSTSTAYMELRSLRSDDTAVYYCQTGTRDYWGQGTTVTVSS VL: DIQLTQSPSFLSASVGDRVTITCRASSSVRYIYWFQQKPGKAPKLLIYATSTLQSGVPSRFSGSGSGTEYTLTISSLQPEDFATYYCHQRNSFPYTFGQGTKLEIK has what recorded Kd?
-- reply 0.0289
